target or test system: Kappa-type opioid receptor (Homo sapiens)
experimental protocol: Agonist activity at kappa opioid receptor by [35S]GTPgammaS binding assay
readout label: EC50
Please format your answer as a value with the unit trailing.

**Q:** Look up and state reported EC50 for COC(=O)[C@@H]1C[C@H](OC(C)=O)C(=O)[C@H]2[C@@]1(C)CC[C@H]1C(=O)O[C@H]([C@]3(O)[C@H](OC)O[C@H](OC)[C@H]3O)C[C@]21C [SALVINICIN A]
**A:** 4.1 µM

* * *

target or test system: Kappa-type opioid receptor (Homo sapiens, UniProt P41145)
Sequence (P41145 whole entry): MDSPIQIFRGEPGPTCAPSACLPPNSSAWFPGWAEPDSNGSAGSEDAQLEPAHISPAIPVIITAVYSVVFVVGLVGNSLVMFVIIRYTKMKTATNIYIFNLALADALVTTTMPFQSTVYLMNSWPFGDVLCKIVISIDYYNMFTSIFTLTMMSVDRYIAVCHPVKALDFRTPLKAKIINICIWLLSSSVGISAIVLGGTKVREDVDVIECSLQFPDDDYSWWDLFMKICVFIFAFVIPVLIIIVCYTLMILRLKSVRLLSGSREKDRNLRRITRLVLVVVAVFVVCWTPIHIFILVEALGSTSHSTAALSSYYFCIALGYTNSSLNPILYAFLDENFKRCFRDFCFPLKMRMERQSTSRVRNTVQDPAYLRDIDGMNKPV
experimental protocol: Antagonist activity at kappa opioid receptor by [35S]GTPgammaS binding assay
readout label: Ki

**Q:** Look up and state reported Ki for COC(=O)[C@@H]1C[C@H](OC(C)=O)C(=O)[C@@H]2[C@@]3(C)C[C@@H]([C@]4(O)[C@@H](OC)O[C@@H](OC)[C@H]4O)CC(=O)[C@@H]3CC[C@]21C [SALVINICIN B]
**A:** > 1.9 µM
